Attribute: pKd
Biological target: T1, mouse latent myostatin (mouse, UniProt O08689 26-267; O08689 268-376)
T1 sequence 1: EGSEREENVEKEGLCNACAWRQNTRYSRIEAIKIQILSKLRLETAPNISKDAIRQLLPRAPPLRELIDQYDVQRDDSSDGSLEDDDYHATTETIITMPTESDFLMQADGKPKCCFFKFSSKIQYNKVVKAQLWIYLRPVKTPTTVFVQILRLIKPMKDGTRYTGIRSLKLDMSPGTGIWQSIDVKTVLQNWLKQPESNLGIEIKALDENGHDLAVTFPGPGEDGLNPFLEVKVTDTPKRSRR
T1 sequence 2: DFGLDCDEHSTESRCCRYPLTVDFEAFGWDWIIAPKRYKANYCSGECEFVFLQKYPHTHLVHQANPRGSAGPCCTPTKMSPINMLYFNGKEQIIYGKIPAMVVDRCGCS
Test: SPR 37C pH5.8; pH 5.8
// pKd is dimensionless: -log10 of concentration (M)

Use these answered entries as a reference point.
{"binder": "MS_M103205H1057-SG1/M103202L889-SK1 (antibody, human IgG1, kappa, V domains shown, also called MS1032LO12-SG1) VH: QVTLKESGPVLVKPTETLTLTCTVSGIDLSHTDISWVRQAPGKGLEWVGIISYAGSKYKASWAKGRLTISKDTSKNQVVLTMTNMDPVDTATYYCARGVPAYSHGGDLWGQGTLVTVSS VL: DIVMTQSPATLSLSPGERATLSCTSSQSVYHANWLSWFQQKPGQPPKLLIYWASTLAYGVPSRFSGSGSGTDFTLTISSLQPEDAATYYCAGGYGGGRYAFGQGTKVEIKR", "pKd": 7.61}
{"binder": "MS_M103240H1246-SG1/M103202L1045-SK1 (antibody, human IgG1, kappa, V domains shown, also called MS1032LO25-SG1) VH: QVQLVESGGGLVQPGGSLRLSCAVSGIDLSHEDISWVRQAPGKGLEWVSIISYAGSKYYASWAKGRLTISKDTSKNQVVLTMTNMDPVDTATYYCARGVPAYSHGGDLWGQGTLVTVSS VL: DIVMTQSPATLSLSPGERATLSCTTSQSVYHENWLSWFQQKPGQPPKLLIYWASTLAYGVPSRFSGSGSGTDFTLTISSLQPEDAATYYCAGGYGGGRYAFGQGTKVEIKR", "pKd": 8.01}

Please look at the following binder next.
Query: pKd; subject: MS_M103245H795-SG1/M103202L1045-SK1 (antibody, human IgG1, kappa, V domains shown, also called MS1032LO21-SG1) VH: QVTLKESGPVLVKPTETLTLTCKVSGIDLSHDDISWVRQAPGKGLEWVSIISYAGSTYYASWAKGRLTISKDTSKNQVVLTMTNMDPVDTATYYCARGVPAYSHGGDLWGQGTLVTVSS VL: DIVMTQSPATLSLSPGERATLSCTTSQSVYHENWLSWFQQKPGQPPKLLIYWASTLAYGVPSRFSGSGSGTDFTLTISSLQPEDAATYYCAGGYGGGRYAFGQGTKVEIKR 7.53
